molecular target: UniProt Q12809
Sequence (Q12809 whole entry): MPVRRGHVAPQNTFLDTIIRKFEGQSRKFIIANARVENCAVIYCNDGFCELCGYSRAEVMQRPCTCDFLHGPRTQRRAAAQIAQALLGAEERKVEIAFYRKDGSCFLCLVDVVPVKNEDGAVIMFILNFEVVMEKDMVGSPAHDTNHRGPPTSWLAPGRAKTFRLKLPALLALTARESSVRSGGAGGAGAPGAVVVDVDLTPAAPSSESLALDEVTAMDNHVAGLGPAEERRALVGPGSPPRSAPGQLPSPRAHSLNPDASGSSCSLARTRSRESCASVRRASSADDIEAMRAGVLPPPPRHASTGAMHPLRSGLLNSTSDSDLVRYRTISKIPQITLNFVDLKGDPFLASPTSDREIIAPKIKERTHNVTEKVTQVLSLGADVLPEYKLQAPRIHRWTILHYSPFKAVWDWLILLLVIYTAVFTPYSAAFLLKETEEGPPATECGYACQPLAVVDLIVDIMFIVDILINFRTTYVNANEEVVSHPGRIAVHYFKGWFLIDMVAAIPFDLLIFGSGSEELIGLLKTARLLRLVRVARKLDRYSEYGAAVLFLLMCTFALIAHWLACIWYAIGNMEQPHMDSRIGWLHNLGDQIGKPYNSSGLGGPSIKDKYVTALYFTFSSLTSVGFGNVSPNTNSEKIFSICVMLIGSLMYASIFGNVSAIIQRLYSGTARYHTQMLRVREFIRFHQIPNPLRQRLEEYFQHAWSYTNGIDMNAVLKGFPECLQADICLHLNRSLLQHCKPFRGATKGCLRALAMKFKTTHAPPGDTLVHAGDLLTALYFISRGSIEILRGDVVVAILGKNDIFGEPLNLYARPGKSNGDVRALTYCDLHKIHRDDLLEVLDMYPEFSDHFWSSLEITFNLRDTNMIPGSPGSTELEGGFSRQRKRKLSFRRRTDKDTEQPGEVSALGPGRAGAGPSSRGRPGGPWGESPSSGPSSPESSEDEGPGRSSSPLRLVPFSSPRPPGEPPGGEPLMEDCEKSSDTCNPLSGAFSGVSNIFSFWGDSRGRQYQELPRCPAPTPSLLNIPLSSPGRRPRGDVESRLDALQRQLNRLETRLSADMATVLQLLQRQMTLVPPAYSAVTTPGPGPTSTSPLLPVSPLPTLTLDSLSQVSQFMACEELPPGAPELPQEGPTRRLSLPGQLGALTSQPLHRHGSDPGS
Experimental Endpoint: IC50 (µM)
Number only, in µM; omit the unit.

[Q] Provide IC50 value for the following molecule: CCOC(=O)c1cc(C)n(-c2ccccc2)c1C [OSM-S-31]
[A] 3.89
